- ASSAYED_TARGET: Protein cereblon/Cyclin-dependent kinase 4 (Homo sapiens, UniProt P11802+Q96SW2)
- Sequence (P11802 whole entry): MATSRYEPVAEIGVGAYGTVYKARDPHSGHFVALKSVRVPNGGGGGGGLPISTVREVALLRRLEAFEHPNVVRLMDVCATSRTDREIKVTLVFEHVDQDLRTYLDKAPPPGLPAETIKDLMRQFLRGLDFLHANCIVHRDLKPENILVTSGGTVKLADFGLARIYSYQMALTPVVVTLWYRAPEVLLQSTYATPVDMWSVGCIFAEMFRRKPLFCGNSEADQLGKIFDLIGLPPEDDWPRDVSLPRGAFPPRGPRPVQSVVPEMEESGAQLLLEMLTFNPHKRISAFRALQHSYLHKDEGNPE
- Sequence (Q96SW2 whole entry): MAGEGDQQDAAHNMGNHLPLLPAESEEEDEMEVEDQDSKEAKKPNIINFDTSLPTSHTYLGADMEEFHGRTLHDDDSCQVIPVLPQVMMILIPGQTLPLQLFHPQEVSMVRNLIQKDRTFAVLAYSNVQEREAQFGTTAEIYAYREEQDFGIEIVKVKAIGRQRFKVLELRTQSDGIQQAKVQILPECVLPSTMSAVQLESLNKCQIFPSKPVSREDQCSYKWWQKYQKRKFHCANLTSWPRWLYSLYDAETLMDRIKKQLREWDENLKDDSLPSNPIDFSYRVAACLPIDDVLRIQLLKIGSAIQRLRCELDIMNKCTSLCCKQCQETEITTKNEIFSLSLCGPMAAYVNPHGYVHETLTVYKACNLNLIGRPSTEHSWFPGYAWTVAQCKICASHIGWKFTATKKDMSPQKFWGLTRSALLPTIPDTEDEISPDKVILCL
- ASSAY_DETAILS: Induction of CRBN-mediated CDK4 degradation in human U251 cells after 24 hrs by immunoblot analysis
- Format: cell-based
Please respond with reported DC50 for every item in the list.

Lookup: Reported DC50 for CC(=O)c1c(C)c2cnc(Nc3ccc(N4CCN(Cc5cn(CCCCCCNc6cccc7c6C(=O)N(C6CCC(=O)NC6=O)C7=O)nn5)CC4)cn3)nc2n(C2CCCC2)c1=O (configuration not stated) : what is it?
Found: > 0.1 µM

Lookup: Next entry: CC(=O)c1c(C)c2cnc(Nc3ccc(N4CCN(Cc5cn(CCCCCCc6cccc7c6C(=O)N(C6CCC(=O)NC6=O)C7=O)nn5)CC4)cn3)nc2n(C2CCCC2)c1=O (configuration not stated)
Found: > 0.05 µM

Lookup: Further, for CC(=O)c1c(C)c2cnc(Nc3ccc(N4CCN(CC(=O)NCCOCCOCCNc5cccc6c5C(=O)N(C5CCC(=O)NC5=O)C6=O)CC4)cn3)nc2n(C2CCCC2)c1=O (configuration not stated) ?
Found: > 0.1 µM

Lookup: Try the molecule CC(=O)c1c(C)c2cnc(Nc3ccc(N4CCN(CCOCCOCCNc5cccc6c5C(=O)N(C5CCC(=O)NC5=O)C6=O)CC4)cn3)nc2n(C2CCCC2)c1=O (configuration not stated)
Found: > 0.05 µM

Lookup: CC(=O)c1c(C)c2cnc(Nc3ccc(N4CCN(Cc5cn(CCCCC#Cc6cccc7c6C(=O)N(C6CCC(=O)NC6=O)C7=O)nn5)CC4)cn3)nc2n(C2CCCC2)c1=O (configuration not stated) ?
Found: > 0.1 µM

Lookup: Continue with Cc1nc2c(F)cc(-c3nc(Nc4ccc(CN5CCN(Cc6cn(CCOCCNc7cccc8c7C(=O)N(C7CCC(=O)NC7=O)C8=O)nn6)CC5)cn4)ncc3F)cc2n1C(C)C (configuration not stated)
Found: > 0.5 µM

Lookup: Another molecule to check: Cc1nc2c(F)cc(-c3nc(Nc4ccc(CN5CCN(Cc6cn(CCOCCOCCOCCOCCNc7cccc8c7C(=O)N(C7CCC(=O)NC7=O)C8=O)nn6)CC5)cn4)ncc3F)cc2n1C(C)C (configuration not stated)
Found: > 0.5 µM
